# procedure_text: Plasma protein binding by rapid equilibrium dialysis
# Assay type: in vitro ADME
# condition_set: BALB/c, mouse
observation_type: fraction unbound at 24 h, 100000 ng/mL
Reply briefly: the number, and no unit.

State its fraction unbound at 24 h, 100000 ng/mL for this compound: CNCc1ccc(-c2cc(-c3nc(-c4ccc(S(=O)(=O)C(C)C)cc4)cnc3N)on2)cc1 0.0427

---

# Assay type: in vivo, BALB/c mice
# condition_set: BALB/c, mouse, non-draining lymph node, iv, 20 mg/kg
observation_type: Cmax (ng/mL)
A number alone suffices; assume ng/mL.

Note Cmax for the compound shown: CNCc1ccc(-c2cc(-c3nc(-c4ccc(S(=O)(=O)C(C)C)cc4)cnc3N)on2)cc1 20700

---

# Format: in vivo, BALB/c mice
# condition_set: BALB/c, mouse, bone marrow, iv, 20 mg/kg
observation_type: Kp
Note: the reply should be a number with no unit written.

Assign Kp to the following record: CNCc1ccc(-c2cc(-c3nc(-c4ccc(S(=O)(=O)C(C)C)cc4)cnc3N)on2)cc1 74.5

---

# Type: in vivo, BALB/c mice
# condition_set: BALB/c, mouse, liver, iv, 20 mg/kg, AUC0-t; 20 mg/kg IV; 0–1440 min
observation_type: AUC(0-t)
Put down the number, then write its unit next to it.

Fill in AUC(0-t) for record CNCc1ccc(-c2cc(-c3nc(-c4ccc(S(=O)(=O)C(C)C)cc4)cnc3N)on2)cc1 363 µg·h/mL

---

# Format: in vivo, BALB/c mice
# condition_set: BALB/c, mouse, plasma, iv, 20 mg/kg
observation_type: Vd (L/kg)
Write it as a number; the unit L/kg goes unstated.

Report Vd, nothing else, for this compound: CNCc1ccc(-c2cc(-c3nc(-c4ccc(S(=O)(=O)C(C)C)cc4)cnc3N)on2)cc1 11.7

---

# Format: in vivo, BALB/c mice
# condition_set: BALB/c, mouse, brain, iv, 20 mg/kg
observation_type: Cmax (ng/mL)
Please reply with the bare figure in ng/mL and do not write the unit itself.

Identify the reported Cmax for the following entry. CNCc1ccc(-c2cc(-c3nc(-c4ccc(S(=O)(=O)C(C)C)cc4)cnc3N)on2)cc1 [berzosertib] 627

---

# Assay type: in vivo, BALB/c mice
# condition_set: BALB/c, mouse, small intestine, iv, 20 mg/kg
observation_type: AUC(0-inf) (µg·h/mL)
Express your answer in µg·h/mL, writing the number without its unit.

Using known records, supply AUC(0-inf) for CNCc1ccc(-c2cc(-c3nc(-c4ccc(S(=O)(=O)C(C)C)cc4)cnc3N)on2)cc1 209

---

# Assay type: in vivo, BALB/c mice
# condition_set: BALB/c, mouse, skeletal muscle, iv, 20 mg/kg, AUC0-t, Sk. Muscle; 20 mg/kg IV; 0–1440 min
observation_type: AUC(0-t) (ng·h/mL)
Response body: numeric value in ng·h/mL, unit text excluded.

Please supply the value of reported AUC(0-t) for the item CNCc1ccc(-c2cc(-c3nc(-c4ccc(S(=O)(=O)C(C)C)cc4)cnc3N)on2)cc1 39400

---

# Type: in vivo, BALB/c mice
# condition_set: BALB/c, mouse, spleen, iv, 20 mg/kg
observation_type: Kp
Please give the numeric answer without any surrounding text.

Give the value of Kp reported for the following: CNCc1ccc(-c2cc(-c3nc(-c4ccc(S(=O)(=O)C(C)C)cc4)cnc3N)on2)cc1 20.6

---

# Format: in vivo, BALB/c mice
# condition_set: BALB/c, mouse, lung, iv, 20 mg/kg
observation_type: AUC(0-inf) (µg·h/mL)
Give the number; µg·h/mL is assumed, so skip it.

Identify the reported AUC(0-inf) for the following entry. CNCc1ccc(-c2cc(-c3nc(-c4ccc(S(=O)(=O)C(C)C)cc4)cnc3N)on2)cc1 216

---

# Format: in vivo, BALB/c mice
# condition_set: BALB/c, mouse, brain, iv, 20 mg/kg
observation_type: Tmax (min)
Give the quantity in min, number only.

For the molecule CNCc1ccc(-c2cc(-c3nc(-c4ccc(S(=O)(=O)C(C)C)cc4)cnc3N)on2)cc1 , give its measured Tmax value. 15

---

# Format: in vivo, BALB/c mice
# condition_set: BALB/c, mouse, plasma, iv, 20 mg/kg
observation_type: half-life (h)
Give the value in h but do not write h after it.

Look up and report measured half-life for this entry: CNCc1ccc(-c2cc(-c3nc(-c4ccc(S(=O)(=O)C(C)C)cc4)cnc3N)on2)cc1 6.12

---

# Format: in vivo, BALB/c mice
# condition_set: BALB/c, mouse, spleen, iv, 20 mg/kg
observation_type: Cmax (ng/mL)
Value expressed in ng/mL; do not type the unit.

Using known records, supply Cmax for CNCc1ccc(-c2cc(-c3nc(-c4ccc(S(=O)(=O)C(C)C)cc4)cnc3N)on2)cc1 39000

---

# Type: in vivo, BALB/c mice
# condition_set: BALB/c, mouse, fat, iv, 20 mg/kg
observation_type: Tmax (min)
Just the number in min, nothing appended.

# return recorded Tmax for input CNCc1ccc(-c2cc(-c3nc(-c4ccc(S(=O)(=O)C(C)C)cc4)cnc3N)on2)cc1 [berzosertib] 5

---

# Format: in vivo, BALB/c mice
# condition_set: BALB/c, mouse, bone marrow, iv, 20 mg/kg, AUC0-t; 20 mg/kg IV; 0–1440 min
observation_type: AUC(0-t) (µg·h/mL)
Give the quantity in µg·h/mL, number only.

Provide AUC(0-t) value for the following molecule: CNCc1ccc(-c2cc(-c3nc(-c4ccc(S(=O)(=O)C(C)C)cc4)cnc3N)on2)cc1 1060

---

# procedure_text: Dose linearity study: single IV dose PK, noncompartmental analysis
# Type: in vivo, female BALB/c mice
# condition_set: female, BALB/c, mouse, plasma, iv, 20 mg/kg
observation_type: AUC(0-inf) (ng·h/mL)
Only the number, expressed in ng·h/mL, is required.

Input CNCc1ccc(-c2cc(-c3nc(-c4ccc(S(=O)(=O)C(C)C)cc4)cnc3N)on2)cc1 , output reported AUC(0-inf). 10200

---

# Assay type: in vivo, BALB/c mice
# condition_set: BALB/c, mouse, red blood cells (RBC), iv, 20 mg/kg
observation_type: AUC(0-inf) (ng·h/mL)
# unit: ng·h/mL | format: bare number

Please look at this compound and report its AUC(0-inf): CNCc1ccc(-c2cc(-c3nc(-c4ccc(S(=O)(=O)C(C)C)cc4)cnc3N)on2)cc1 5870

---

# Format: in vivo, BALB/c mice
# condition_set: BALB/c, mouse, draining lymph node, iv, 20 mg/kg
observation_type: Kp
Reply: number alone, nothing else.

Let me know recorded Kp for CNCc1ccc(-c2cc(-c3nc(-c4ccc(S(=O)(=O)C(C)C)cc4)cnc3N)on2)cc1 [berzosertib] , thanks. 5.7

---

# Format: in vivo, BALB/c mice
# condition_set: BALB/c, mouse, esophagus, iv, 20 mg/kg
observation_type: Kp
Write the number on its own, no unit after it.

Assign Kp to the following record: CNCc1ccc(-c2cc(-c3nc(-c4ccc(S(=O)(=O)C(C)C)cc4)cnc3N)on2)cc1 [berzosertib] 3.07

---

# procedure_text: Dose linearity study: single IV dose PK, noncompartmental analysis
# Assay type: in vivo, female BALB/c mice
# condition_set: female, BALB/c, mouse, plasma, iv, 2 mg/kg, AUC0-t; 2.0 mg/kg IV
observation_type: AUC(0-t) (ng·h/mL)
Report the value in ng·h/mL with no unit label.

Note down AUC(0-t) recorded for CNCc1ccc(-c2cc(-c3nc(-c4ccc(S(=O)(=O)C(C)C)cc4)cnc3N)on2)cc1 [berzosertib] 765

---

# Type: in vivo, BALB/c mice
# condition_set: BALB/c, mouse, small intestine, iv, 20 mg/kg
observation_type: Tmax (min)
Report the figure in min without appending any unit label.

Specify reported Tmax for the molecule shown: CNCc1ccc(-c2cc(-c3nc(-c4ccc(S(=O)(=O)C(C)C)cc4)cnc3N)on2)cc1 15

---

# Assay type: in vivo, BALB/c mice
# condition_set: BALB/c, mouse, fat, iv, 20 mg/kg
observation_type: Cmax
For clarity, give the value followed by its unit.

# return recorded Cmax for entry CNCc1ccc(-c2cc(-c3nc(-c4ccc(S(=O)(=O)C(C)C)cc4)cnc3N)on2)cc1 4.28 µg/mL

---

# procedure_text: Dose linearity study: single IV dose PK, noncompartmental analysis
# Type: in vivo, female BALB/c mice
# condition_set: female, BALB/c, mouse, plasma, iv, 60 mg/kg
observation_type: Cmax (ng/mL)
Please respond with the number in ng/mL and leave the unit unwritten.

Please give measured Cmax of the following entry: CNCc1ccc(-c2cc(-c3nc(-c4ccc(S(=O)(=O)C(C)C)cc4)cnc3N)on2)cc1 21200

---

# Format: in vivo, BALB/c mice
# condition_set: BALB/c, mouse, small intestine, iv, 20 mg/kg
observation_type: Kp
Just the number, please.

Report measured Kp; entry is CNCc1ccc(-c2cc(-c3nc(-c4ccc(S(=O)(=O)C(C)C)cc4)cnc3N)on2)cc1 [berzosertib] 12.7
